The measured values listed here are drawn from paper PMC6255377.

Recorded measurements of IC50, one per entry
# Tested on: P. falciparum 3D7 strain, chloroquine sensitive
# ASSAY_COMMENT: In vitro antimalarial activity screening (SYBR Green I micromethod)
# Assay type: cell-based
# CONDITION_DESCRIPTION: Plasmodium falciparum, 3D7; Table 1; 48 h incubation; mean of two experiments in triplicate; read-out: P. falciparum 3D7 IC50
// note: answer is a bare numeric in µM

INSERT INTO measurements (compound, endpoint, observed_value) VALUES
  ('OC(CCN1CCN(c2cccc3c2OCCO3)CC1)c1csc2ccccc12 (stereo not shown)', 'IC50', 3.56),
  ('OC(CCN1CCN(c2cccc3ncccc23)CC1)c1csc2ccccc12 (stereo not shown)', 'IC50', 1.3),
  ('OC(CCN1CCN(c2cccc3cccnc23)CC1)c1csc2ccc(F)cc12 (stereo not shown)', 'IC50', 0.79),
  ('OC(CCN1CCN(c2ccc3ccccc3n2)CC1)c1csc2ccccc12 (stereo not shown)', 'IC50', 2.22),
  ('COc1cccc(N2CCN(CCC(O)c3csc4ccc(F)cc34)CC2)c1 (stereo not shown)', 'IC50', 1.67);

Bench note, P. falciparum 3D7 strain, chloroquine sensitive: OC(CCN1CCN(c2cccc3ccccc23)CC1)c1csc2ccc(F)cc12 (stereo not shown) , IC50 reads 0.16

Measured IC50 (P. falciparum 3D7 strain, chloroquine sensitive), entry OC(CCN1CCN(c2cccc3[nH]ccc23)CC1)c1csc2ccc(F)cc12 (stereo not shown) : 3.81

* * *

# Test system: P. falciparum 3D7 strain, chloroquine sensitive
# ASSAY_COMMENT: In vitro antimalarial activity screening (SYBR Green I micromethod)
# Assay type: cell-based
# CONDITION_DESCRIPTION: Plasmodium falciparum, 3D7; Table 1; 48 h incubation; mean of two experiments in triplicate; read-out: P. falciparum 3D7 IC50
pIC50: −log10 of the molar value.
pIC50 values for the molecules below.

Consider the worked cases shown below.
INSERT INTO results (molecule, target_or_system, observed_value) VALUES
  ('O=[N+]([O-])c1ccc(N2CCN(CCC(O)c3csc4ccc(F)cc34)CC2)cc1 (stereo not drawn)', 'P. falciparum 3D7 strain, chloroquine sensitive', '< 4.70'),
  ('O=C(CCN1CCN(c2cccc3cccnc23)CC1)c1csc2ccc(F)cc12', 'P. falciparum 3D7 strain, chloroquine sensitive', '< 4.70');

The value of pIC50 measured for the molecule `O=C(CCN1CCCN(c2ccc([N+](=O)[O-])cc2)CC1)c1csc2ccccc12` turned out to be < 4.70

* * *

# System: P. falciparum 3D7 strain, chloroquine sensitive
# ASSAY_COMMENT: In vitro antimalarial activity screening (SYBR Green I micromethod)
# Format: cell-based
# CONDITION_DESCRIPTION: Plasmodium falciparum, 3D7; Table 1; 48 h incubation; mean of two experiments in triplicate; read-out: P. falciparum 3D7 IC50
# Method: The SYBR^©GreenI-based micromethod was followed for testing the antimalarial activity of the compounds. Erythrocytic stages of P. falciparum 3D7 strain, chloroquine sensitive, were maintained in RPMI 1640 culture medium supplemented with 0.5% Albumax II at 37 °C in an atmosphere with 5% CO2. […] Next, stock solutions of each compound were prepared in DMSO and diluted in RPMI medium in order to obtain concentrations from 10 to 0.01 µg/mL. […] Fluorescence intensity (FI) for each well was measured. […]
The reader will find reported IC50 values listed item by item below.

INSERT INTO assay_data (chem_smiles, endpoint, observed_value) VALUES
  ('O=C(CCN1CCN(c2cccc3ccccc23)CC1)c1csc2ccc(F)cc12', 'IC50', '> 20 µM');

Memo: `Cc1ccc2cccc(N3CCN(CCC(=O)c4csc5ccccc45)CC3)c2n1` , reported IC50: > 20 µM

GET /value?item= `COc1ccccc1N1CCN(CCC(=O)c2csc3ccccc23)CC1` &field=IC50 returns > 20 µM
